experiment: Solubility in PGMEA
Type: physicochemical
recorded.conditions: solvent PGMEA (propylene glycol monomethyl ether acetate)
recorded.endpoint: Solubility in PGMEA (wt %)

structure.notation | unit.text | Solubility in PGMEA
Cc1cc(C)c(Nc2ccc(Nc3c(C)cc(C)cc3C)c3c2C(=O)c2ccccc2C3=O)c(C)c1 | wt % | 0.6

(I) C=CCN(CC=C)C(=O)COc1cc(C)c(Nc2ccc(Nc3c(C)cc(C)cc3C)c3c2C(=O)c2ccccc2C3=O)c(C)c1
(II) Cc1cc(C)c(Nc2ccc(Nc3c(C)cc(O)cc3C)c3c2C(=O)c2ccccc2C3=O)c(C)c1
(III) CC(C)Nc1ccc(NC(C)C)c2c1C(=O)c1ccccc1C2=O
Ordering: ascending Solubility in PGMEA. Please, when replying, give the labels in the order that was requested. III, II, I
